Consider the following compounds; for each one, report its IC50.
- tested_system: WDR5 (Homo sapiens, UniProt P61964)
- Construct: N-terminal His-tagged WDR5Δ23 (residues 24-334) was expressed from the pET28-MHL vector; His tag (N); made in house; host or cells: Rosetta2(DE3) pLysS cells (E. coli)
- assay_name: fluorescence-polarization based competitive binding assay
- test_conditions: FP competitive binding; WDR5Δ23 4 nM, tracer 0.6 nM, five hours incubation; Table 2 series; read-out: IC50, binding affinity to WDR5

For record CC[C@@H]1NC(=O)[C@H](CCCNC(=N)N)NC(=O)[C@](C)(NC(=O)C(C)C)CCCCCCNC(=O)[C@H](c2ccccc2)NC1=O [Compound 29c] the listed IC50 is < 10 nM

Please fill in: IC50 reported for CC[C@@H]1NC(=O)[C@H](CCCNC(=N)N)NC(=O)[C@](C)(NC(=O)C(C)C)CCCCCCNC(=O)[C@@H](c2ccccc2)NC1=O [Compound 29b] = < 10 nM

So, CC[C@@H]1NC(=O)[C@H](CCCNC(=N)N)NC(=O)[C@](C)(NC(=O)C(C)C)CCCCCNC1=O [Compound 19a] ? Its IC50 was < 1000 nM

Record CC[C@@H]1NC(=O)[C@H](CCCNC(=N)N)NC(=O)[C@](C)(NC(=O)C(C)C)CCCCCCCCNC1=O [Compound 19c] , field IC50: < 10 nM

The measured IC50 associated with CC[C@@H]1NC(=O)[C@H](CCCNC(=N)N)NC(=O)[C@](C)(NC(=O)C(C)C)CCCCCCNC1=O [Compound 19b] reads < 10 nM
